Catalogue of compounds with associated MIC (μg/mL) Streptococcus pneumoniae A28272
tested on: Streptococcus pneumoniae A28272; experiment: MIC, broth micro dilution assay (NCCLS); type: cell-based; details: 50% Mueller-Hinton medium and 50% Todd Hewitt medium, 35° C., 18 hours
The response must be a number in µg/mL with no trailing unit.

Record excerpt, results attached:
Recall and state the measured MIC (μg/mL) Streptococcus pneumoniae A28272 for C=C(NC(=O)c1csc(-c2nc3c(cc2OCOP(=O)(OC(C)(C)C)OC(C)(C)C)-c2nc(cs2)C(=O)NC(C(C)O)C(=O)NC(=C(C)OC)c2nc(cs2)C(=O)NC2c4nc(cs4)C(=O)NC(COC(=O)c4c5c6c(cccc6n4OCOP(=O)(OC(C)(C)C)OC(C)(C)C)COC(=O)C(OC4CC(C)(O)C(N(C)C)C(C)O4)C2OC5)c2nc-3cs2)n1)C(N)=O (stereo not drawn) [Example 73] . 0.25

Recall and state the measured MIC (μg/mL) Streptococcus pneumoniae A28272 for C=C(NC(=O)c1csc(-c2nc3c(cc2O)-c2nc(cs2)C(=O)NC(C(C)O)C(=O)NC(=C(C)OC)c2nc(cs2)C(=O)NC2c4nc(cs4)C(=O)NC(COC(=O)c4c5c6c(cccc6n4OCCC[N+](C)(C)C)COC(=O)C(OC4CC(C)(O)C(N(C)C)C(C)O4)C2OC5)c2nc-3cs2)n1)C(N)=O (stereo not drawn) [Example 14] . 0.5

Next:
Recall and state the measured MIC (μg/mL) Streptococcus pneumoniae A28272 for C=C(NC(=O)c1csc(-c2nc3c(cc2OCCO)-c2nc(cs2)C(=O)NC(C(C)O)C(=O)NC(=C(C)OC)c2nc(cs2)C(=O)NC2c4nc(cs4)C(=O)NC(COC(=O)c4c5c6c(cccc6n4OCCO)COC(=O)C(OC4CC(C)(O)C(N(C)C)C(C)O4)C2OC5)c2nc-3cs2)n1)C(N)=O (stereo not drawn) [Example 77] . 0.03
